Values were extracted from the supplement of paper PMC10037445.

- Tested on: RAW-Dual
- PROCEDURE_SUMMARY: IRF Lucia reporter activity, fold change vs agonist alone; cytotoxicity flag (confluency mask): not cytotoxic; higher = enhanced IRF activity
- EXPERIMENTAL_PARAMETERS: agonist: LPS (TLR4) 0.1 ug/mL
Over roughly 2,900 compounds, “IRF Lucia reporter activity, fold change vs agonist alone” has its median near 0.9; the highest 2% begin near 2.8. This is one part of a sample in which the highest values are shown more often than they occur.
MEASURED_QUANTITY: IRF Lucia reporter activity

Field request: IRF Lucia reporter activity | item: CCS(=O)(=O)O.COC(=O)c1ccc2c(c1)NC(=O)/C2=C(\Nc1ccc(N(C)C(=O)CN2CCN(C)CC2)cc1)c1ccccc1 (library stock concentration (final ~1000-fold dilution): 10 mM)
0.246

Field request: IRF Lucia reporter activity | item: CC(C)OC(=O)C(C)NP(=O)(OCC1OC(n2ccc(=O)[nH]c2=O)C(C)(F)C1O)Oc1ccccc1 (stereo not given) (library stock concentration (final ~1000-fold dilution): 10 mM)
0.731

Field request: IRF Lucia reporter activity | item: CN1CCC(CNc2ccc3ncc(-c4cccc(OC(F)(F)F)c4)n3n2)CC1 (library stock concentration (final ~1000-fold dilution): 10 mM)
0.089

Field request: IRF Lucia reporter activity | item: CC(C)CCn1c(CN2CCN(C(=O)C3CC3)CC2)nc2c1c(=O)n(C)c(=O)n2C (library stock concentration (final ~1000-fold dilution): 10 mM)
0.989

Field request: IRF Lucia reporter activity | item: CCN(C)S(=O)(=O)Nc1ccc(F)c(C(=O)c2c[nH]c3ncc(-c4cnc(C5CC5)nc4)cc23)c1F (library stock concentration (final ~1000-fold dilution): 10 mM)
0.409
